Target: UniProtKB P27338
Sequence (P27338 whole entry): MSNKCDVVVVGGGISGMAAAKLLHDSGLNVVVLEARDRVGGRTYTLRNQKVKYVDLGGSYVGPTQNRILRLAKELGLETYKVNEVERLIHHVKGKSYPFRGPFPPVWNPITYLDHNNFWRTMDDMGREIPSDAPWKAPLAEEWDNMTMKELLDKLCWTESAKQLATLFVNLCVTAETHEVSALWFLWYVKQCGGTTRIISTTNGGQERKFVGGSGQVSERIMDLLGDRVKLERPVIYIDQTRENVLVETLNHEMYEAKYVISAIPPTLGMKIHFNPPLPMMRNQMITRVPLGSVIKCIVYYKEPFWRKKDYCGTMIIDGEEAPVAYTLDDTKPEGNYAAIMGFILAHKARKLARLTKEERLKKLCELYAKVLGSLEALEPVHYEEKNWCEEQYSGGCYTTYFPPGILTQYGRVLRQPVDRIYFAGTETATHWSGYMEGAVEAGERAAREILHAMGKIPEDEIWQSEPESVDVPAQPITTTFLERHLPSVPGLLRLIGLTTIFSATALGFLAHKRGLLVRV
Assay: biochemical
Format: cell-based
Description: Inhibition of recombinant human MAO-B expressed in baculovirus infected BTI insect cells using kynuramine as substrate after 30 mins by fluorescence based assay
pIC50: −log10 of the molar value.
MEASURE NAME: pIC50

In [3]: df
Out[3]:
                            molecule_smiles  reported_value
0  CCN(CC)CCCCCCOc1ccc(/C=C/C(=O)c2ccc(OCCCCCCN(CC)CC)cc2O)cc1            5.80
1  O=C(/C=C/c1ccccc1)c1ccc(OCCCCCCN2CCCC2)cc1O            4.90
2  O=C(/C=C/c1ccc(OCCCCCCN2CCCC2)cc1)c1ccccc1O            4.73
